parameter-measured: melting point (°C)

Sample answers from the record:
compound	melting point / °C
CC(Br)C(C)(C)C (stereo not given) [2-bromo-3,3-dimethylbutane]	25
COc1ccc(C=C[N+](=O)[O-])cc1OCc1ccccc1 [2-(benzyloxy)-1-methoxy-4-(2-nitrovinyl)benzene]	120

(A) O=C(O)/C=C/c1ccccc1[N+](=O)[O-] [trans-2-nitrocinnamic acid]
(B) O=C1OC(c2ccccc2)=N/C1=C/c1ccc(-c2cccc([N+](=O)[O-])c2)o1
(C) CCOC(=O)CC#N [ethyl_cyanoacetate]
(D) COc1ccc(C#N)cc1 [4-methoxybenzonitrile]
Request: I would appreciate it if you could sort these 4 compounds by melting point, starting from the smallest number. I'd appreciate it if you listed the labels in the requested order.
Response: C, D, B, A

(a) c1cc2ccc1CCc1ccc(cc1)CC2 [[2.2]paracyclophane]
(b) CC1(C)CC(=O)c2c(cc3c(c2-c2ccccc2)-c2ccccc2OC3)C1
Request: Sorting ascending by melting point, which comes first: a or b ? // return label of chosen record
Response: b

(I) Nc1ccn([C@@H]2O[C@H](CO)[C@@H](O)[C@H]2O)c(=O)n1 [Cytidine]
(II) NCc1ccccc1 [benzylamine]
Request: Please compare: I and II . Report which one has the smaller melting point value. Please indicate the selected item by its label.
Response: II
(II: 10 °C, I: 210 °C)

The measurements presented in this section are drawn from the Bradley open melting point set (2014).
